System: BT-549 breast
Assay: NCI-60 one-dose screen, 48 h
Conditions: 10 µM unless noted
The panel holds about 83,000 compounds, 20% with a hit somewhere; the sample as a whole holds those more often. Calls of active or inactive are those of the source. Rule for the calls: active = growth percent below 10; inactive = the rest.
Classes used: active, inactive

MOLECULE | SYSTEM | LABEL_VALUE
COc1cccc(/C=C/C(=O)c2c(C)nc3ccccc3c2/C=C/c2ccc(C)cc2)c1OC | BT-549 breast | inactive
COc1ccc(-c2nc(SCCC(C)C)nc(N/N=C\c3cccc(Cl)c3)c2C#N)cc1 | BT-549 breast | inactive
COc1ccc(C2C(c3nn[nH]n3)=C(N)Oc3c2ccc2ccccc32)cc1 (stereo not given) | BT-549 breast | inactive
CCc1ccccc1-n1c(-c2ccc(Cl)cc2)cc(-c2ccc(OC)cc2)c(C#N)c1=O | BT-549 breast | inactive
CCCCNC(=O)Oc1ccc2c(=O)c3sc4c(=O)c5ccccc5c(=O)c4c3c(=O)c2c1 | BT-549 breast | active
Cn1ccc2c(c1=O)C(=O)c1nccc3c1c-2nc1ccccc13 | BT-549 breast | inactive
Cc1cc(C)c2c(-c3nnc(N)s3)cc(=O)oc2c1 | BT-549 breast | inactive
CC(C)CCC[C@@H](C)[C@H]1CC[C@H]2[C@@H](Nc3ccc(O)cc3)CCC[C@]12C | BT-549 breast | inactive
Cc1ccc(Nc2ccc(Nc3ccc(C)cc3)c3c2C(=O)c2cccc(O)c2C3=O)cc1 | BT-549 breast | inactive
CNc1ccc(NC)c2c1C(=O)c1ccccc1C2=O | BT-549 breast | inactive
